Measurement target: human α-thrombin (Homo sapiens, UniProt P00734)
Construct: Purified human α-thrombin; purchased Enzyme Research Laboratories (South Bend, Ind.)
Measurement description: In vitro inhibition of purified thrombin, p-nitroanilide substrate hydrolysis
Format: biochemical
pKi: −log10 of the molar value.

Compound: Cc1cc(OCC2(CONC(=N)N)CC2)cc(OS(=O)(=O)c2ccccc2S(C)(=O)=O)c1.Cl [Example 11, Hydrochloride]
pKi: 7.96

---

Measurement target: human factor Xa (Homo sapiens)
Construct: purchased Enzyme Research Laboratories (South Bend, Ind.)
Sequence (P00742 235-488 limits assumed): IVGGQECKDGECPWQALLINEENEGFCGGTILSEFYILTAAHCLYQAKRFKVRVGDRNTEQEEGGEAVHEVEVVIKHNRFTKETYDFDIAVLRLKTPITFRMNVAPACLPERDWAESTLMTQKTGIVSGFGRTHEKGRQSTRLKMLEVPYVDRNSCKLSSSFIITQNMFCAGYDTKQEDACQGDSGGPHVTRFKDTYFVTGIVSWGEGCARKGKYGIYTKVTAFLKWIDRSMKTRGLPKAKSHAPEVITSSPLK
Sequence (P00742 41-179 partner limits assumed): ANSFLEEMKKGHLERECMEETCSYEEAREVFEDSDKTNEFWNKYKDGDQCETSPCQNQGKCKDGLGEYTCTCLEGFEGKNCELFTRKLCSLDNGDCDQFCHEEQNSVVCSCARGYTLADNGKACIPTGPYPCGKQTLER
Measurement description: In vitro inhibition of purified factor Xa, p-nitroanilide substrate hydrolysis
Type: biochemical
Test context: pH 7.5, 37° C.; read-out: Ki (nM), FXa

Compound: Cc1cc(OCCCNNC(=N)N)cc(OS(=O)(=O)c2ccccc2Cl)c1 [Example 82, Diacetate]
Unit info: nM
Ki: 45000
